Label rule, in plain words: melting point of 200 °C and up is fulfilled, under 200 °C is not fulfilled.

Recorded results for 3 molecules are shown here.
CCOc1cc(C(=O)N2CCCCC[C@H]2C)nc2cc(-c3ccc(/C=C/C(=O)O)cc3F)nn12 [Compound M24]	fulfilled
CCc1cc(C(=O)N2CCn3cccc3C2C)nc2cc(-c3ccc(C(N)=O)cc3F)nn12 (stereo not drawn) [Compound I35]	fulfilled
CCc1cc(C(=O)N2CCCCC[C@H]2C)nc2cc(-c3ccc(C#N)cc3F)nn12 [Compound H4]	not fulfilled

State whether the measured melting point reaches 200 °C, counting equality as reaching it, for CCc1cc(C(=O)N2CCCCCC2C)nc2cc(-c3ccc(NC(=O)C4CC4)cc3F)nn12 (stereo not drawn) [Compound E11] not fulfilled

Given the entry CCc1cc(C(=O)N2CCCCCC2C)nc2cc(-c3ccc(C(=O)NCCN(C)C)cc3F)nn12 (stereo not drawn) [Compound L2] , answer whether its melting point meets or surpasses 200 °C. not fulfilled

Kindly determine if melting point recorded for CCc1cc(C(=O)N2CCc3ccccc3[C@H]2C)nc2cc(-c3ccc(N4CC[C@H](C(=O)O)C4)cc3F)nn12 [Compound W28] is above or exactly 200 °C. fulfilled

Please tell me: is the molecule CC1c2ccsc2CCN1C(=O)c1cc(C2(C)CC2)n2nc(-c3ccc(-n4cc(C(=O)O)cn4)cc3F)cc2n1 (racemic) [Compound W39] at or over 200 °C in terms of melting point? fulfilled

* * *

endpoint: melting point

Some solved cases for reference:
CC1CCCCCN1C(=O)c1cc(C(F)(F)F)n2nc(-c3ccc(C(N)=O)cc3F)cc2n1 (stereo not drawn) [Compound I31]	238 to 240 °C
CCc1cc(C(=O)N2CCCc3ccccc3C2C)nc2cc(-c3ccc(C(=O)O)cc3F)nn12 (stereo not drawn) [Compound K8]	105 to 110 °C

Continue with the next compound.
I have this compound here, CCc1cc(C(=O)N2CCCCCC2C)nc2cc(-c3ccc(-c4ccn[nH]4)cc3F)nn12 (stereo not drawn) [Compound F5] , and I need its recorded melting point. 75 to 76 °C

* * *

- experiment-notes: Cytotoxicity in HeLa cells, ATP content measured with the ATPlite kit
- Assay type: cell-based
- details: human, TOX HELA pCC50
Listing: CC50 at 3 days of selected compounds

Consider the following illustrative entries.
CCc1cc(C(=O)N2CCCCCC2C)nc2cc(-c3ccc(C(=O)NCCO)cc3F)nn12 (stereo not shown)	> 25.1 µM
CCCC(C)N(CC)C(=O)c1cc(CC)n2nc(-c3ccc([C@H]4C[C@@H]4C(=O)O)cc3F)cc2n1 (relative stereo)	66.1 µM
CCc1cc(C(=O)N2CCCCCC2C)nc2cc(-c3ccc(C(=O)NO)cc3F)nn12 (stereo not shown)	20.4 µM
CCc1cc(C(=O)N2CCCCCC2C)nc2cc(-c3ccc(C4CC4C(=O)O)cc3F)nn12 (stereo not shown)	> 25.1 µM
CCc1cc(C(=O)N2CCCCCC2C)nc2cc(-c3ccc(/C=C(\C)C(=O)O)cc3F)nn12 (stereo not shown)	> 25.1 µM

I would be grateful if you could share the reported CC50 at 3 days for CCc1cc(C(=O)N2CCCCCC2C)nc2cc(-c3ccc(C(N)=O)nc3)nn12 (stereo not shown) . > 25.1 µM

Would you kindly share the measured CC50 at 3 days for CCc1cc(C(=O)N2CCn3cccc3C2C)nc2cc(-c3ccc(/C=C/C(=O)O)cc3F)nn12 (stereo not shown) [Compound M43] ? > 25.1 µM
